Ref: ChEMBL document CHEMBL4261485

procedure text: 1-octanol/buffer partition co-efficient of compound in neutral form at pH 7.4 at 298 K after 24 hrs by shake flask method
Assay type: physicochemical
particulars: pH 7.4, 24 h
Listed below: K values for each entry.
measured endpoint: K

compound: Cc1cc(Nc2nc(CC(C)O)ns2)no1 (configuration not stated)
value: 45

compound: CSc1cccc(Nc2nc(CC(C)O)ns2)c1 (configuration not stated)
value: 94

compound: CC(O)Cc1nsc(Nc2ccc(Cl)cc2)n1 (configuration not stated)
value: 380

compound: Cc1ccc(Nc2nc(CC(C)O)ns2)cc1 (configuration not stated)
value: 445

* * *

procedure text: 1-octanol/buffer partition co-efficient of compound in neutral form at pH 7.4 at 298 K after 24 hrs by shake flask method
Assay type: physicochemical
particulars: pH 7.4, 24 h
Please assign not fulfilled whenever K is at or above 3 ×10⁴ No_unit, and fulfilled whenever it is below.

compound: CC(Cc1nsc(Nc2ccc(Br)cc2)n1)NC1CC(C)(C)NC(C)(C)C1 (stereo unspecified)
label value: fulfilled
--
compound: CC(Cc1nsc(Nc2ccc(Cl)cc2)n1)NC1CC(C)(C)NC(C)(C)C1 (stereo unspecified)
label value: fulfilled
--
compound: Cc1ccc(Nc2nc(CC(C)NC3CC(C)(C)NC(C)(C)C3)ns2)cc1 (stereo unspecified)
label value: not fulfilled
--
compound: Cc1ccc(Cl)cc1Nc1nc(CC(C)NC2CC(C)(C)NC(C)(C)C2)ns1 (stereo unspecified)
label value: not fulfilled
--
compound: CC(Cc1nsc(Nc2ccc(F)c(Cl)c2)n1)NC1CC(C)(C)NC(C)(C)C1 (stereo unspecified)
label value: not fulfilled

* * *

procedure text: Permeability of compound at 5 mM using support layer at pH 7.4 at 298 K by spectrophotometric method
Format: ADME
particulars: not told
measured endpoint: Papp at 5000 µM (×10⁻⁶ cm/s)

compound: CC(Cc1nsc(Nc2ccc(Br)cc2)n1)NC1CC(C)(C)NC(C)(C)C1 (stereo unspecified)
measured endpoint: Papp at 5000 µM
measurement unit: ×10⁻⁶ cm/s
value: 25.8
//
compound: Cc1ccc(Cl)cc1Nc1nc(CC(C)NC2CC(C)(C)NC(C)(C)C2)ns1 (stereo unspecified)
measured endpoint: Papp at 5000 µM
measurement unit: ×10⁻⁶ cm/s
value: 30.8
//
compound: Cc1cc(Nc2nc(CC(C)NC3CC(C)(C)NC(C)(C)C3)ns2)no1 (stereo unspecified)
measured endpoint: Papp at 5000 µM
measurement unit: ×10⁻⁶ cm/s
value: 31.7
//
compound: CC(Cc1nsc(Nc2ccc(F)c(Cl)c2)n1)NC1CC(C)(C)NC(C)(C)C1 (stereo unspecified)
measured endpoint: Papp at 5000 µM
measurement unit: ×10⁻⁶ cm/s
value: 25.4
//
compound: Cc1ccc(Nc2nc(CC(C)NC3CC(C)(C)NC(C)(C)C3)ns2)cc1Cl (stereo unspecified)
measured endpoint: Papp at 5000 µM
measurement unit: ×10⁻⁶ cm/s
value: 20.6
//
compound: CC(Cc1nsc(Nc2ccc(Cl)cc2)n1)NC1CC(C)(C)NC(C)(C)C1 (stereo unspecified)
measured endpoint: Papp at 5000 µM
measurement unit: ×10⁻⁶ cm/s
value: 21.9
//
compound: CSc1cccc(Nc2nc(CC(C)NC3CC(C)(C)NC(C)(C)C3)ns2)c1 (stereo unspecified)
measured endpoint: Papp at 5000 µM
measurement unit: ×10⁻⁶ cm/s
value: 22.8
//
compound: CC(Cc1nsc(Nc2ccc(F)cc2)n1)NC1CC(C)(C)NC(C)(C)C1 (stereo unspecified)
measured endpoint: Papp at 5000 µM
measurement unit: ×10⁻⁶ cm/s
value: 16.3
//
compound: CC(Cc1nsc(NC2CC2)n1)NC1CC(C)(C)NC(C)(C)C1 (stereo unspecified)
measured endpoint: Papp at 5000 µM
measurement unit: ×10⁻⁶ cm/s
value: 27.6
//
compound: CC(Cc1nsc(Nc2ccc(Cl)c(Cl)c2)n1)NC1CC(C)(C)NC(C)(C)C1 (stereo unspecified)
measured endpoint: Papp at 5000 µM
measurement unit: ×10⁻⁶ cm/s
value: 15.7
//
compound: Cc1ccc(Nc2nc(CC(C)NC3CC(C)(C)NC(C)(C)C3)ns2)cc1 (stereo unspecified)
measured endpoint: Papp at 5000 µM
measurement unit: ×10⁻⁶ cm/s
value: 26.3
